Tested on: HOP-18 NSCLC
assay.name: NCI tumour cell line growth inhibition, 48 h
parameter: TGI (µM)
Numbers only here, please. The scale is µM.

Examples from the recorded data:
compound | tested.on | TGI, µM
NC(=O)c1ccccc1NC(=O)C(=O)C(C(=O)c1ccc2ccccc2c1)C1OC(=O)c2ccccc21 (stereo not given) | HOP-18 NSCLC | 22.7
CCCCCCCCCCCCCCCCOC(=O)C(C(=O)OCCCCCCCCCCCCCCCC)[N+](C)(C)CCOC(C)=O | HOP-18 NSCLC | 30.3
C/C=C/C=N/N(c1nnc(-c2ccccc2)c(-c2ccccc2)n1)S(=O)(=O)c1ccc(C)cc1 | HOP-18 NSCLC | 27.4

Here is another compound to look at.
Exercise: Returns the measured TGI for the input compound. Input: `N=C(N)n1ncc(Cl)c(Cl)c1=O`
Solution: 2.86

----------
Tested on: UACC-62 melanoma
assay.name: NCI tumour cell line growth inhibition, 48 h
Measured TGI, listed per entry for reference.
Numbers only here, please. The scale is µM.

Examples from the recorded data:
molecule | measurement.unit | TGI
CCN1CCC[C@H]1c1cc(O)c2c(c1OC)C[C@H]1C[C@H]3[C@H](N)C(=O)C(C(N)=O)=C(O)[C@@]3(O)C(=O)C1=C2O | µM | 1.3
CN(C)CCNC(=O)c1cccc2nc3ccc4ccccc4c3nc12 | µM | 0.256
COc1cc(Cn2c3c(c4c(CN(C)C)c(O)ccc42)C(=O)c2ccccc2C3=O)cc(OC)c1 | µM | 51.9
O=C(CCCn1c2c(sc3ncccc32)c(=O)n2nnc(-c3ccccc3)c12)NCCc1cnc[nH]1 | µM | 30.5
CC(=O)OCC1C(C(C)OC(C)=O)CCC2C1CCC1(C)C(OC(C)=O)CCC21 (stereo not drawn) | µM | 26.3
CC(C)(C)OC(=O)N1C(C2=COc3ccccc3O2)=COc2ccccc21 | µM | 32.6

Exercise: Returns the measured TGI for the input molecule. Input: `CCOC(=O)c1ccc(N=C2SC(=S)N(c3ccc(F)cc3)C2=Nc2ccc(C(=O)OCC)cc2)cc1`
Solution: 21.5

----------
Tested on: RPMI-8226 leukemia
assay.name: NCI tumour cell line growth inhibition, 48 h
Measured TGI, listed per entry for reference.

Examples from the recorded data:
molecule | readout.value
Cc1ccnc(NS(=O)(=O)c2ccc(NC(=O)c3ccc4nc5ccccc5c(Nc5ccc(S(=O)(=O)Nc6nccc(C)n6)cc5)c4c3)cc2)n1 | > 100 µM
COc1ccc(/C=C/c2cc(OC)c(O[Si](C)(C)C(C)(C)C)c(OC)c2)cc1 | > 100 µM

Here is another molecule to look at.
Exercise: Returns the measured TGI for the input molecule. Input: O=C1NC(=NCC(CO)c2ccccc2)S/C1=C\c1ccc2ncccc2c1 (stereo not drawn)
Solution: > 25 µM

----------
Measured TGI, listed per entry for reference.
System: SNB-19 CNS
assay.name: NCI tumour cell line growth inhibition, 48 h

Examples from the recorded data:
compound | parameter | readout.value
CCOC(=O)C(Cc1ccc2c(c1)CCC2)(Cc1ccc2c(c1)CCC2)C(=O)OCC | TGI | > 100 µM
NC(CCCCCP(=O)(O)O)C(=O)O (centres undefined) | TGI | > 100 µM
NC(=O)c1cnc2sc3ccccc3n2c1=O | TGI | > 100 µM

Exercise: Returns the measured TGI for the input compound. Input: CC(=O)OC1(C#N)CC2OC1C1C2N1C(=O)c1ccccc1 (centres undefined)
Solution: > 100 µM

Exercise: Returns the measured TGI for the input compound. Input: CCOC(=O)C(SCCO)C(C(=O)OCC)n1ccc(N)nc1=O (centres undefined)
Solution: > 100 µM

Exercise: Returns the measured TGI for the input compound. Input: `CCN(CC)CCN1c2ccccc2Sc2ccc3ccccc3c21`
Solution: 29.6 µM

Exercise: Returns the measured TGI for the input compound. Input: `Nc1nc(N)c2cc(CNc3ccc(Cl)c(Cl)c3)ccc2n1`
Solution: 2.09 µM

Origin of the recorded values: PubChem BioAssay (NCI)
